# SUBJECT_OF_TEST: T1, rat collagen, acid soluble, type I, rat tail (Upstate 08-115) (rat, UniProt P02454 152-1207; P02466 86-1125)
# T1 construct: tissue extract, gelled and dried in wells; also called dried rat collagen
# ASSAY_NOTES: dried collagen assay
Bridge positions count the residues as written; N and C are the ends. Square brackets hold non-standard residues; d marks the D form. Ends that are not written are not given here.
Label scheme for % bound: lower than 20% is label 0, 20% and above is label 1.

Answered cases to consult:
{"BINDER": "YSACYQAGCWIW (disulfide 4-9 (inferred), cyclic, disulfide) [SEQ ID NO 109]", "ASSIGNED_CATEGORY": "label 1"}
{"BINDER": "GQWTCAGDEYTWHCNYE (disulfide 5-14 (inferred), cyclic, disulfide) [SEQ ID NO 141]", "ASSIGNED_CATEGORY": "label 1"}
{"BINDER": "WTCSGDEYTWHCNYE (disulfide 3-12 (inferred), cyclic, disulfide) [SEQ ID NO 114]", "ASSIGNED_CATEGORY": "label 0"}
{"BINDER": "GQWTCSGDEYTWHCNY (disulfide 5-14 (inferred), cyclic, disulfide) [SEQ ID NO 123]", "ASSIGNED_CATEGORY": "label 1"}
{"BINDER": "YHACYQAGCWIA (disulfide 4-9 (inferred), cyclic, disulfide) [SEQ ID NO 138]", "ASSIGNED_CATEGORY": "label 0"}
{"BINDER": "YHACYQAGCAIW (disulfide 4-9 (inferred), cyclic, disulfide) [SEQ ID NO 136]", "ASSIGNED_CATEGORY": "label 0"}
{"BINDER": "GQWTCSGDEY[dA]WHCNA[dE] (disulfide 5-14 (inferred), cyclic, disulfide) [SEQ ID NO 124]", "ASSIGNED_CATEGORY": "label 0"}
{"BINDER": "QWTCSGDEY[dT]WHCNYE (disulfide 4-13 (inferred); not fully specified (N-terminus); printed as QWTCSGDEYtWHCNYE, cyclic, disulfide) [SEQ ID NO 172]", "ASSIGNED_CATEGORY": "label 0"}
{"BINDER": "DWTCS[dR]DEYTWHCNYE (disulfide 4-13 (inferred), cyclic, disulfide) [SEQ ID NO 181]", "ASSIGNED_CATEGORY": "label 1"}
{"BINDER": "QWT[dC]SGDEYTWHCNYE (disulfide 4-13 (inferred); not fully specified (N-terminus, C-terminus); printed as QWTcSGDEYTWHCNYE, cyclic, disulfide) [SEQ ID NO 167]", "ASSIGNED_CATEGORY": "label 0"}

Attention now turns to another entry.
Prompt line: // inclusive: % bound at least 20%? input: QWTCSGDEYTWHCN[dY]E (disulfide 4-13 (inferred); not fully specified (N-terminus); printed as QWTCSGDEYTWHCNyE, cyclic, disulfide) [SEQ ID NO 177]
Response line: label 1

Every entry's value here was drawn from patent US20080044360A1.
